System: BT-549 breast
Test: NCI tumour cell line growth inhibition, 48 h
experimental.endpoint: TGI

molecule | reported
CC(=O)NNc1nc(C)c(C(/C=C/c2ccc([N+](=O)[O-])cc2)=N/N)s1 | > 100 µM
N#CC(c1ccnc(Cl)n1)c1nc2ccccc2s1 (centres undefined) | > 26 µM
O=Cc1c2ccccc2n2ccc3c4ccccc4[nH]c3c12 | > 10 µM
CC1=C(/C=C/C(=O)O)C(C)(C)CCC1 | > 100 µM
O=C(O)c1cc(=O)[nH]c(SCc2ccccc2)n1 | > 100 µM
Nc1ncnc2c1ncn2Cc1ccc(C23CC4CC(CC(C4)C2)C3)c(OCc2cc(F)c(F)cc2F)c1 | > 100 µM
N#Cc1c(NC(=S)Nc2ccc(Cl)cc2)sc2c1CCCC2 | > 100 µM
COc1cc2c3c(n(CCCN(CCN)CCCn4c5c(c6cc(OC)c(OC)cc6c4=O)C(=O)c4cc6c(cc4-5)OCO6)c(=O)c2cc1OC)-c1cc2c(cc1C3=O)OCO2 | > 79.3 µM
CCOC(=O)/C(=N\OC)C(O)C(F)(F)F (centres undefined) | > 100 µM
O=c1ccc(N=Nc2ccc([N+](=O)[O-])cc2)ccc1O | > 100 µM
Cn1cc(C2=C(c3cn(CCO)c4ccccc34)C(=O)NC2=O)c2ccccc21 | 11.9 µM
CCCCCc1nc2c(c3c1CCCC3)CCCC2 | 24.4 µM
O=C(N/N=C(/COc1ccc(Cl)cc1)N=Cc1cccnc1)c1ccncc1 | > 100 µM
CC(=O)Nc1ccc(/C=C/C(=O)c2ccccc2)cc1 | 41.2 µM
c1ccc(C2CC(c3cccc(Nc4ccncc4)c3)=NN2c2ccccc2)cc1 (centres undefined) | 3.87 µM
CC(C)(C)n1c(=O)[nH]n(C2NN=Cc3cccc4cccc2c34)c1=O (centres undefined) | > 100 µM
COc1cc2cc(C(=O)CCC(=O)O)sc2cc1OC | > 100 µM
CC(=O)N1N=C(c2ccc(Nc3nc(Nc4ccc(Cl)cc4)nc(Nc4ccc(Cl)cc4)n3)cc2)CC1c1ccc([N+](=O)[O-])cc1 (centres undefined) | 88.9 µM
COc1cc(OC)cc(OCc2ccc3nc(-c4ccccc4)c(Cl)nc3c2)c1 | 65.3 µM
COc1cc(-c2nc3sccn3c2-c2ccnc(NCCNS(=O)(=O)c3ccc(Cl)cc3)n2)ccc1F | > 100 µM
CCC[CH2][Sn]([CH2]CCC)([O]C(=O)c1cc(F)ccc1F)[O][Sn]([CH2]CCC)([CH2]CCC)[O]C(=O)c1cc(F)ccc1F | 0.946 µM
S=C1Cc2c(-c3ccc(Cl)cc3)cc(-c3ccccc3)nc2-c2ccccc2N1 | 35 µM
O=[N+]([O-])c1ccccc1N=Nc1c(O)[nH]c2ccc(Br)cc12 | > 47.3 µM
COc1cc(/C=N/n2c(Cc3ccc(Cl)cc3)n[nH]c2=O)cc(OC)c1OC | > 100 µM
